# System: JB59 (synthetic)
# Test Details: EMSA
Reported Property: Kd

Q: Fill in: Kd of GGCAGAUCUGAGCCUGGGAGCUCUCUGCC [HIV-1 TAR] is ___
Result: 1 nM

====

# Target System: HIV-1 TAR RNA
# Assay type: binding
# Experimental Parameters: EMSA; positional scanning library, Table S1; with tRNA; read-out: Kd (nM) w/tRNA
Non-standard residues stand in square brackets, D forms with d. Residues, ends and D or L forms follow the SMILES beside them. hArg = N=C(N)NCCCC[C@H](N)C(=O)O
Reported Property: Kd (nM)
Write down the numeric answer in nM and omit the unit.

Q: Fill in: Kd of CC[C@H](C)[C@@H]1NC(=O)[C@H](CCCNC(=N)N)NC(=O)[C@H](CCCNC(=N)N)NC(=O)CNC(=O)[C@H](CCCCN)NC(=O)[C@H](CCCNC(=N)N)NC(=O)[C@H]([C@@H](C)O)NC(=O)[C@H](CCCCNC(=N)N)NC(=O)[C@H](C(C)C)NC(=O)[C@H](CCCNC(=N)N)NC(=O)[C@@H]2CCCN2C(=O)[C@H]2CCCN2C(=O)[C@H]([C@@H](C)CC)NC(=O)[C@H](CCCNC(=N)N)NC1=O [KP-Y-02] (cyclo(RV[hArg]TRKGRRIRI[dP]P)) is ___
Result: 200

====

# Target System: HIV-1 TAR RNA
# Assay type: binding
# Experimental Parameters: EMSA; positional scanning library, Table S1; without tRNA; read-out: Kd (nM) no tRNA
Non-standard residues stand in square brackets, D forms with d. Residues, ends and D or L forms follow the SMILES beside them.
Consider the following compounds and their measured Kd readings.
Write down the numeric answer in nM and omit the unit.

Below, each entry is followed by its recorded Kd result.
compound="CC[C@H](C)[C@@H]1NC(=O)[C@H](CCCNC(=N)N)NC(=O)[C@H](CCCNC(=N)N)NC(=O)CNC(=O)[C@H](CCCCN)NC(=O)[C@H](CCCNC(=N)N)NC(=O)[C@H]([C@@H](C)O)NC(=O)[C@H](CCCNC(=N)N)NC(=O)[C@H](C)NC(=O)[C@H](CCCNC(=N)N)NC(=O)[C@@H]2CCCN2C(=O)[C@H]2CCCN2C(=O)[C@H]([C@@H](C)CC)NC(=O)[C@H](CCCNC(=N)N)NC1=O [JB-66] (cyclo(RARTRKGRRIRI[dP]P))" reported_property=Kd unit_symbol=nM recorded_measurement=1
compound="CC[C@H](C)[C@@H]1NC(=O)[C@H](CCCNC(=N)N)NC(=O)[C@H](CCCNC(=N)N)NC(=O)CNC(=O)[C@H](CCCCN)NC(=O)[C@H](CCCNC(=N)N)NC(=O)[C@H]([C@@H](C)O)NC(=O)[C@H](CCCNC(=N)N)NC(=O)[C@H](C(C)C)NC(=O)[C@H](CCCNC(=N)N)NC(=O)[C@@H]2CCCN2C(=O)[C@H]2CCCN2C(=O)[C@H](C(C)C)NC(=O)[C@H](CCCNC(=N)N)NC1=O [JB-84] (cyclo(RVRTRKGRRIRV[dP]P))" reported_property=Kd unit_symbol=nM recorded_measurement=1
compound="CC[C@H](C)[C@@H]1NC(=O)[C@H](CCCNC(=N)N)NC(=O)[C@H](C)NC(=O)[C@H](CCCNC(=N)N)NC(=O)[C@H](CCCNC(=N)N)NC(=O)CNC(=O)[C@H](CCCCN)NC(=O)[C@H](CCCNC(=N)N)NC(=O)[C@H]([C@@H](C)O)NC(=O)[C@H](CCCNC(=N)N)NC(=O)[C@H](C(C)C)NC(=O)[C@H](CCCNC(=N)N)NC(=O)[C@@H]2CCCN2C(=O)[C@H]2CCCN2C1=O [JB-75] (cyclo(RVRTRKGRRARI[dP]P))" reported_property=Kd unit_symbol=nM recorded_measurement=5
compound="CC[C@H](C)[C@@H]1NC(=O)[C@H](CCCNC(=N)N)NC(=O)[C@H](CCCNC(=N)N)NC(=O)CNC(=O)[C@H](CCCCN)NC(=O)[C@H](CCCNC(=N)N)NC(=O)[C@H]([C@@H](C)O)NC(=O)[C@H](CCCNC(=N)N)NC(=O)[C@H](CC(N)=O)NC(=O)[C@H](CCCNC(=N)N)NC(=O)[C@@H]2CCCN2C(=O)[C@H]2CCCN2C(=O)[C@H]([C@@H](C)CC)NC(=O)[C@H](CCCNC(=N)N)NC1=O [JB-63] (cyclo(RNRTRKGRRIRI[dP]P))" reported_property=Kd unit_symbol=nM recorded_measurement=1

Here's the next entry for you.
Q: Fill in: Kd of CC[C@H](C)[C@@H]1NC(=O)[C@H](CCCNC(=N)N)NC(=O)[C@H](CCCNC(=N)N)NC(=O)CNC(=O)[C@H](CCCCN)NC(=O)[C@H](CCCNC(=N)N)NC(=O)[C@H]([C@@H](C)O)NC(=O)[C@H](CCCNC(=N)N)NC(=O)[C@H]([C@@H](C)O)NC(=O)[C@H](CCCNC(=N)N)NC(=O)[C@@H]2CCCN2C(=O)[C@H]2CCCN2C(=O)[C@H]([C@@H](C)CC)NC(=O)[C@H](CCCNC(=N)N)NC1=O [JB-65] (cyclo(RTRTRKGRRIRI[dP]P)) is ___
Result: 1
